- experimental-system: human ALPP (recombinant protein) (human, UniProt P05187 23-506, limits assumed)
- Sequence (P05187 23-506 limits assumed): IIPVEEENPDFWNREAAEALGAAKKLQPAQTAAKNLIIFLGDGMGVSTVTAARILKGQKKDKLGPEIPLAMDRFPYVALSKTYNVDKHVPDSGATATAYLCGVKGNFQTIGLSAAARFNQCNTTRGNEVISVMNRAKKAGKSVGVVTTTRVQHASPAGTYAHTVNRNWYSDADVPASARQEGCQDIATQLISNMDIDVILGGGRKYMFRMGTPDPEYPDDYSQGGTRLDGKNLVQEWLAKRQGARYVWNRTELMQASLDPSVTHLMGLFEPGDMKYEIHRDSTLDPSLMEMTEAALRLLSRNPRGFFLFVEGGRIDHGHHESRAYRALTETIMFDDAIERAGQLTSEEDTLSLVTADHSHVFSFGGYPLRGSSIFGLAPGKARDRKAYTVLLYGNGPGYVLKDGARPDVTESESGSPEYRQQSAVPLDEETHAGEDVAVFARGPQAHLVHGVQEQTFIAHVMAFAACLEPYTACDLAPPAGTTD
- assay-method-text: SPR, Biacore T200, ligand captured by streptavidin on CM5 chip, antibody as analyte
test-readout: binding result

INSERT INTO results (binder, test_readout, result) VALUES
  ('humanized C4 (antibody, V domains shown, CDRs grafted to a human IgG1 framework; recombinant; also called hC4) VH: EVQLVESGGGLVQPGGSLRLSCAASGFTISNNYWICWVRQAPGKGLEWIGCIATGDGSTYYASWAKGRFTISRDNSKNTLYLQMNSLRAEDTAVYYCARGAAGSSWTTYFDFWGQGTLVTVSS VL: DIQMTQSPSSLSASVGDRVTITCQAGQNIDNYLSWYQQKPGKVPKLLIYRASTLASGVPSRFSGSGSGTDFTLTISSLQPEDVATYYCQNNNGGSTFTGFPFGQGTKVEIK', 'binding result', 'binds'),
  ('humanized C18 (antibody, human IgG1, V domains shown, CDRs grafted to a human IgG1 framework; recombinant; also called hC18) VH: EVQLVESGGGLVQPGGSLRLSCAASGFSFSSYWTCWVRQAPGKGLEWLGCTDGGSSGDTYYATWAKGRFTISRDNSKNTLYLQMNSLRAEDTAVYYCARNLITWDLWGQGTLVTVSS VL: DIQMTQSPSSLSASVGDRVTITCQASESVYNNNQLSWYQQKPGKVPKLLIYWASKLASGVPSRFSGSGSGTDFTLTISSLQPEDVATYYCAGYKSSITDGNAFGQGTKVEIK', 'binding result', 'binds'),
  ('humanized C15 (antibody, human IgG1, V domains shown, CDRs grafted to a human IgG1 framework; recombinant; also called hC15) VH: EVQLVESGGGLVQPGGSLRLSCAASGFSFSSSYYMCWVRQAPGKGLEWIACIYTTYGGTWYASWAKGRFTISRDNSKNTLYLQMNSLRAEDTAVYYCARSSISDVTYFNLWGQGTLVTVSS VL: DIQMTQSPSSLSASVGDRVTITCQASQSISNYLAWYQQKPGKVPKLLIYRASTLESGVPSRFSGSGSGTDFTLTISSLQPEDVATYYCQSYYDNNNYAFGQGTKVEIK', 'binding result', 'binds');
